Below are pKi values measured for Mu-type opioid receptor (Rattus norvegicus).
pKi: −log10 of the molar value. Square brackets hold non-standard residues; d marks the D form. Peptide text beside a SMILES is read from it. NMeF = CN[C@@H](Cc1ccccc1)C(=O)O; Ava = NCCCCC(=O)O

{"Molecule": "CC(C)C[C@H]1CNC(=O)C(=O)N1C[C@H](Cc1ccccc1)N(C)CCN(C)CCN1C[C@H](Cc2ccc(O)cc2)N(C)C(=O)C1=O", "Target or system": "Mu-type opioid receptor (Rattus norvegicus)", "pKi": 4.82}
{"Molecule": "CC(C)C[C@H](NC(=O)[C@H](Cc1ccccc1)N(C)C(=O)CCCCNC(=O)[C@@H](N)Cc1ccc(O)cc1)C(N)=O (H-Y[Ava][NMeF]L-NH2)", "Target or system": "Mu-type opioid receptor (Rattus norvegicus)", "pKi": 4.41}
{"Molecule": "CN[C@H](CNCC(=O)N(C)CCN(C)[C@H](CN[C@H](CN)CC(C)C)Cc1ccccc1)Cc1ccc(O)cc1", "Target or system": "Mu-type opioid receptor (Rattus norvegicus)", "pKi": 5.82}
{"Molecule": "CC(C)C[C@H]1CNC(=S)N1C[C@H](Cc1ccccc1)N(C)C[C@@H]1CCCN1C[C@H](Cc1ccc(O)cc1)N(C)C", "Target or system": "Mu-type opioid receptor (Rattus norvegicus)", "pKi": 6.37}
{"Molecule": "CC(C)C[C@H]1CNCCN1C[C@H](Cc1ccccc1)N(C)CCN1CCN(C[C@H](Cc2ccc(O)cc2)N(C)C)CC1", "Target or system": "Mu-type opioid receptor (Rattus norvegicus)", "pKi": 5.94}
{"Molecule": "CC(C)C[C@H]1CNC(=N)N1C[C@H](Cc1ccccc1)N(C)CCN1CCN(C[C@H](Cc2ccc(O)cc2)N(C)C)C1=N", "Target or system": "Mu-type opioid receptor (Rattus norvegicus)", "pKi": 5.97}
{"Molecule": "CC(C)C[C@H]1CNCCN1C[C@H](Cc1ccccc1)N(C)CCN(C)CCN1CCN(C)[C@@H](Cc2ccc(O)cc2)C1", "Target or system": "Mu-type opioid receptor (Rattus norvegicus)", "pKi": 5.58}
{"Molecule": "CC(C)CC(CN)NCC(Cc1ccccc1)N(C)CCCCCNCC(N)Cc1ccc(O)cc1 (stereo not drawn)", "Target or system": "Mu-type opioid receptor (Rattus norvegicus)", "pKi": 5.75}
